# Applied Conditions: human, in vivo, iv
# Description: Hepatic clearance in human administered through iv dosing
// CLH lookup, one value per entry
Just the number please, in mL/min/kg, no unit attached.

Check out these entries, answers already filled in.
CCCCC(=O)N(Cc1ccc(-c2ccccc2-c2nnn[nH]2)cc1)[C@H](C(=O)O)C(C)C    0.35
CCCCc1nc(C)c(CC(=S)N(C)C)c(=O)n1Cc1ccc(-c2ccccc2-c2nnn[nH]2)cc1    9.6

Query: Quick one: CLH for COc1ccc(Cl)cc1C(=O)NCCc1ccc(S(=O)(=O)NC(=O)NC2CCCCC2)cc1 [GLYBURIDE] ?
Result: 1.2

Query: Ok, now O=S(=O)(Nc1nncs1)c1cc(Cl)c(Oc2ccc(C(F)(F)F)cc2-c2ccnnc2)cc1F [PF-05186462]
Result: 1.3

Query: Can you handle CCN1CC(n2nccc2-c2cc(Cl)ccc2Oc2ccc(S(=O)(=O)Nc3cscn3)cc2C#N)C1 [PF-05150122] next?
Result: 3.2

Query: Continue with O=C(O)C[C@H](O)C[C@H](O)/C=C/c1c(C2CC2)nc2ccccc2c1-c1ccc(F)cc1 [PITAVASTATIN]
Result: 5.6

Query: Please give the result for CCCCC1=NC2(CCCC2)C(=O)N1Cc1ccc(-c2ccccc2-c2nnn[nH]2)cc1 [IRBESARTAN] too.
Result: 2.1

Query: How about COc1ccc2c(c1)C(=O)N(CCc1ccc(S(=O)(=O)NC(=O)NC3CCCCC3)cc1)C(=O)C2(C)C [GLIQUIDONE] ?
Result: 0.96

Query: Would you mind doing "CN(C)C(=O)CCS[C@H](SCCC(=O)O)c1cccc(/C=C/c2ccc3ccc(Cl)cc3n2)c1" as well?
Result: 0.91

Query: Can you check O=C(O)Cc1ccccc1Nc1c(Cl)cccc1Cl [DICLOFENAC] next?
Result: 4.1

* * *

# Assay Summary: in vivo
# Applied Conditions: cynomolgus monkey, blood and plasma, iv
# Description: Ratio of drug level in cynomolgus monkey blood to plasma administered through iv dosing by LC-MS/MS analysis
Ranges used to classify blood plasma ratio: bin A = under 0.6, bin B = from 0.6 up to 0.7, bin C = 0.7 and over

O=C(O)c1cccc(Cc2cc(Cl)ccc2OCc2ccc(Cl)cc2F)n1    bin A
CN(C)C(=O)CCS[C@H](SCCC(=O)O)c1cccc(/C=C/c2ccc3ccc(Cl)cc3n2)c1    bin A
CC[C@H](C)C(=O)O[C@H]1C[C@H](O)C=C2C=C[C@H](C)[C@H](CC[C@@H](O)C[C@@H](O)CC(=O)O)[C@H]21 [PRAVASTATIN]    bin B
COc1ccc2c(c1)C(=O)N(CCc1ccc(S(=O)(=O)NC(=O)NC3CCCCC3)cc1)C(=O)C2(C)C [GLIQUIDONE]    bin B
CC(C)c1nc(N(C)S(C)(=O)=O)nc(-c2ccc(F)cc2)c1/C=C/[C@@H](O)C[C@@H](O)CC(=O)O [ROSUVASTATIN]    bin C

Query: Please let me know in which category the item CC(C)(C)NC(=O)[C@H]1CC[C@H]2[C@@H]3CC=C4C=C(C(=O)O)CC[C@]4(C)[C@H]3CC[C@]12C [EPRISTERIDE] belongs.
Result: bin A

* * *

# Assay Summary: physchem
Metric: pKa at 0.3 h

Consider the reported pKa at 0.3 h for these compounds:
CCCCC1=NC2(CCCC2)C(=O)N1Cc1ccc(-c2ccccc2-c2nnn[nH]2)cc1 [IRBESARTAN]    4.6
COCc1c(C(C)C)nc(C(C)C)c(/C=C/[C@@H](O)C[C@@H](O)CC(=O)O)c1-c1ccc(F)cc1 [CERIVASTATIN]    5.6
O=C(O)[C@@H]1CCC[C@H]1C(=O)c1ccc(-c2ccc(Nc3nc4ccc(F)cc4s3)c(F)c2)cc1    2.4
O=C(O)C[C@H](O)C[C@H](O)/C=C/c1c(C2CC2)nc2ccccc2c1-c1ccc(F)cc1 [PITAVASTATIN]    5.1
CCCc1nc2c(C)cc(-c3nc4ccccc4n3C)cc2n1Cc1ccc(-c2ccccc2C(=O)O)cc1    3.2

Proceed to the following item.
Query: Consider the compound CC(C)(O)c1ccccc1CC[C@@H](SCC1(CC(=O)O)CC1)c1cccc(/C=C/c2ccc3ccc(Cl)cc3n2)c1 [MONTELUKAST] and give its measured pKa at 0.3 h.
Result: 2.3
